Measurement notes: Half life in Sprague-Dawley rat at 5 mg/kg, iv
Type: ADME, organism-based
Parameters: dose 5 mg/kg, route intravenous
Particulars: in vivo
Could you mark each record TRUE if its half-life falls strictly under 70 min, and FALSE if it equals or exceeds it?

Item smiles | Assigned class
CC(C)c1ccc2c(Nc3cc(C(=O)N[C@@H](C)c4ccc(Br)cc4)ccc3Sc3ccc(N)cc3)ncnc2n1 | FALSE
CC(C)c1ccc2c(Nc3cc(C(=O)N[C@@](C)(CO)c4ccccc4)ccc3Sc3ccc(N)cc3)ncnc2n1 | TRUE
CC(C)c1ccc2c(Nc3cc(C(=O)N[C@@H](C)C4CCCCC4)ccc3Sc3ccc(N)cc3)ncnc2n1 | TRUE
Cc1ccc([C@H](C)NC(=O)c2ccc(Sc3ccc(N)cc3)c(Nc3ncnc4nc(C(C)C)ccc34)c2)cc1 | TRUE
CC(C)c1ccc2c(Nc3cc(C(=O)N[C@@H](C)c4ccccc4)ccc3Sc3ccc(N)cc3)ncnc2n1 | FALSE
COC(=O)Nc1ccc(Sc2ccc(C(=O)N[C@@H](C)c3ccccc3)cc2Nc2ncnc3nc(C(C)C)ccc23)cc1 | TRUE

Query string: Consider `CC(C)c1ccc2c(Nc3cc(C(=O)N[C@H](c4ccccc4)C(F)(F)F)ccc3Sc3ccc(N)cc3)ncnc2n1` . Does its half-life lie strictly below 70 min?
Result string: FALSE

###

Measurement notes: Cmax in dog at 2.5 mg/kg, po
Particulars: in vivo
Reported metric: Cmax (ng/mL)
The response must be a number in ng/mL with no trailing unit.

So for `CC(C)c1ccc2c(Nc3cc(C(=O)N[C@@H](C)c4ccccc4)ccc3Sc3ccc(N)cc3)ncnc2n1` , the logged Cmax turned out to be 490

###

Measurement notes: Oral bioavailability in Sprague-Dawley rat at 5 mg/kg
Format: ADME, organism-based
Particulars: in vivo
Reported metric: bioavailability (%)
Quick note: give the figure in %, leave out the unit.

Illustrative cases are given below, each with its answer.
Item smiles | bioavailability / %
CC(C)c1ccc2c(Nc3cc(C(=O)N[C@H](c4ccccc4)C(F)(F)F)ccc3Sc3ccc(N)cc3)ncnc2n1 | 18.7
CC(C)c1ccc2c(Nc3cc(C(=O)N[C@@H](C)c4ccc(Br)cc4)ccc3Sc3ccc(N)cc3)ncnc2n1 | 24.9
COC(=O)Nc1ccc(Sc2ccc(C(=O)N[C@@H](C)c3ccccc3)cc2Nc2ncnc3nc(C(C)C)ccc23)cc1 | 0
CC(C)c1ccc2c(Nc3cc(C(=O)N[C@@](C)(CO)c4ccccc4)ccc3Sc3ccc(N)cc3)ncnc2n1 | 13.3
Cc1ccc([C@H](C)NC(=O)c2ccc(Sc3ccc(N)cc3)c(Nc3ncnc4nc(C(C)C)ccc34)c2)cc1 | 12.2

Memo: `CC(C)c1ccc2c(Nc3cc(C(=O)N[C@@H](C)c4ccccc4)ccc3Sc3ccc(N)cc3)ncnc2n1` , reported bioavailability: 42.4

bioavailability measured on `CC(C)c1ccc2c(Nc3cc(C(=O)N[C@@H](C)C4CCCCC4)ccc3Sc3ccc(N)cc3)ncnc2n1` = 5

###

Measurement notes: Half life in Sprague-Dawley rat at 5 mg/kg, po
Format: ADME, organism-based
Set-up: dose 5 mg/kg, route oral
Particulars: in vivo
Here the recorded half-life is given for each entry.
Hi, when you answer, please include the unit after the number. Thanks!

Please review the following examples before continuing.
Item smiles | half-life
Cc1ccc([C@H](C)NC(=O)c2ccc(Sc3ccc(N)cc3)c(Nc3ncnc4nc(C(C)C)ccc34)c2)cc1 | 2.6 h
CC(C)c1ccc2c(Nc3cc(C(=O)N[C@@H](C)C4CCCCC4)ccc3Sc3ccc(N)cc3)ncnc2n1 | 0.8 h
CC(C)c1ccc2c(Nc3cc(C(=O)N[C@@H](C)c4ccc(Br)cc4)ccc3Sc3ccc(N)cc3)ncnc2n1 | 2 h

Short answer for `CC(C)c1ccc2c(Nc3cc(C(=O)N[C@@H](C)c4ccccc4)ccc3Sc3ccc(N)cc3)ncnc2n1` : half-life was 2.7 h

Looking up `CC(C)c1ccc2c(Nc3cc(C(=O)N[C@@](C)(CO)c4ccccc4)ccc3Sc3ccc(N)cc3)ncnc2n1` , I found its half-life recorded as 2.7 h

Measured half-life of `CC(C)c1ccc2c(Nc3cc(C(=O)N[C@H](c4ccccc4)C(F)(F)F)ccc3Sc3ccc(N)cc3)ncnc2n1` : 1.8 h
